Assign T/C to each entry below.
- System: L1210 leukemia ip in BDF1 mice, survival T/C
- protocolDescription: NCI In Vivo Anticancer Drug Screen. Data for tumor model L1210 Leukemia (intraperitoneal) in B6D2F1 (BDF1) mice
- conditionParameters: endpoint: mean survival time; dose: 400.0 mg/kg/injection; schedule: Q01DX009 (ip); vehicle: saline with Tween-80; higher = longer survival
Toxic doses and inconclusive results are not listed.

Count: 3. Required value per item: T/C.
1. C/C(=C1/c2ccccc2-c2n[nH]c(C)c21)S(=O)(=O)O
2. Oc1ccc(C=Nc2ccccc2N=Cc2ccc(O)c(O)c2)cc1O
3. COC(=O)C(Br)CCBr (stereo not drawn)

95 % of control
100 % of control
100 % of control

====

Exercise: state measured T/C for each of the compounds provided.
- System: L1210 leukemia ip in BDF1 mice, survival T/C
- protocolDescription: NCI In Vivo Anticancer Drug Screen. Data for tumor model L1210 Leukemia (intraperitoneal) in B6D2F1 (BDF1) mice
- conditionParameters: endpoint: mean survival time; dose: 100.0 mg/kg/injection; schedule: Q04DX003 (ip); vehicle: Klucel (hydroxypropylcellulose) (HPC); higher = longer survival
Inconclusive results and toxic doses are left out.

Give measured T/C for every item shown.
1. O=C1c2ccccc2C(=O)C1c1ccccc1
2. O=C(CI)Nc1ccc(NC(=O)CI)cc1
3. CCCCCCCCCCCCCCCCc1c(C)ncn(C)c1=O
4. CNC(=S)NNc1ccccc1

1: 102 % of control; 2: 90 % of control; 3: 98 % of control; 4: 104 % of control

Fill in T/C for each of the 5 compounds listed.
1. CC(=O)Nc1ccc(NC(=O)NCCCl)cc1
2. CCOc1ccc(NC(C)=O)cc1
3. C=CCc1ccc(OCCOCCNC2CC(C)CCC2C(C)C)c(OC)c1 (stereo not drawn)
4. c1ccc(-n2cc(-c3nc(N4CC4)nc(N4CC4)n3)c3ccccc32)cc1
5. O=C(O)Cc1ccc(Cl)cc1Cl

1. 103 % of control
2. 96 % of control
3. 92 % of control
4. 112 % of control
5. 98 % of control

Field: T/C. Fill in for each record below.
1. O=P(NCCCl)(Nc1ccccc1)Nc1ccccc1
2. CCOC(=O)C(=O)CC(=O)/C=C/c1ccccc1

90 % of control
101 % of control

Items follow; give T/C for each.
1. O=C(c1ccccc1)C1C(c2ccccc2)N1CCl (stereo not drawn)
2. Cc1cc([N+](=O)[O-])cc(C)c1C

1: 92 % of control; 2: 98 % of control

====

Assign T/C to each entry below.
- Tested on: L1210 leukemia ip in BDF1 mice, survival T/C
- protocolDescription: NCI In Vivo Anticancer Drug Screen. Data for tumor model L1210 Leukemia (intraperitoneal) in B6D2F1 (BDF1) mice
- conditionParameters: endpoint: mean survival time; dose: 200.0 mg/kg/injection; schedule: Q01DX009 (ip); vehicle: saline with Tween-80; higher = longer survival
Toxic doses and inconclusive results are not listed.

C=CCC(O)CCC (stereo not drawn); 90 % of control
CCOC(=O)C(=CNc1cccc2cnccc12)C(=O)OCC; 88 % of control
C/C(=C\c1c[nH]c2ccccc12)[N+](=O)[O-]; 100 % of control
c1ccc(C2CCCCO2)cc1 (stereo not drawn); 100 % of control
Cc1c(C(=O)O)cc([N+](=O)[O-])cc1[N+](=O)[O-]; 93 % of control
O=[N+]([O-])CC(OCCCc1ccccc1)C(Cl)(Cl)Cl (stereo not drawn); 109 % of control
COc1ccc(C2CCc3cc4c(cc3/C2=N/O)OCO4)cc1OC (stereo not drawn); 92 % of control
Cc1cc(Cl)cc(C)c1OC(=O)Nc1cccc(C(F)(F)F)c1; 106 % of control
CCOC(=O)CC1COC(=O)C1C(=O)OCC (stereo not drawn); 118 % of control
CCCSc1nccc2n[nH]nc12; 95 % of control

Go through the list and state T/C for each entry.
1. Cc1ccc(CNc2ccc(F)cc2)cc1
2. O=C1OC(=O)C2C(c3ccccc3)C=CC(c3ccccc3)C12 (stereo not drawn)
3. CCC(C(=O)O)N(C)Cc1ccccc1 (stereo not drawn)

1: 100 % of control; 2: 98 % of control; 3: 89 % of control

====

- Tested on: L1210 leukemia ip in BDF1 mice, survival T/C
- protocolDescription: NCI In Vivo Anticancer Drug Screen. Data for tumor model L1210 Leukemia (intraperitoneal) in B6D2F1 (BDF1) mice
- conditionParameters: endpoint: mean survival time; dose: 100.0 mg/kg/injection; schedule: Q04DX003 (ip); vehicle: saline with Tween-80; higher = longer survival
Toxic doses and inconclusive results are not listed.
Task for the reader: assign each of the following molecules its reported T/C.

NC(N)=NC1=NC(=O)CS1; 108 % of control
Nc1ccnc2n[nH]nc12; 101 % of control
COc1cc(CC2c3cc(OC)c(OC)cc3CCN2C)c(Oc2cc3c(cc2OC)-c2c(OC)c(OC)c(OC)c4c2C(C3)N(C)CC4)cc1OC (centres undefined); 97 % of control
CC1=NN(c2cccc(Cl)c2)C(=O)C1; 94 % of control
COc1ccc(-c2nnc3n2C(C)(C)N=C(N)N3)cc1; 94 % of control

// for each molecule in input: emit T/C
1. O=C1C=CC(=O)N1c1nccs1
2. O=c1cc(-c2ccccc2)[nH]c(=S)[nH]1

95 % of control
101 % of control

Dear reader, for each entry below, please note its T/C.
1. CCSc1nc(C=O)c(Cc2ccc(Br)cc2)c(=O)[nH]1
2. Nc1ncc(Br)cn1

1. 106 % of control
2. 105 % of control

====

- Tested on: L1210 leukemia ip in BDF1 mice, survival T/C
- protocolDescription: NCI In Vivo Anticancer Drug Screen. Data for tumor model L1210 Leukemia (intraperitoneal) in B6D2F1 (BDF1) mice
- conditionParameters: endpoint: mean survival time; dose: 100.0 mg/kg/injection; schedule: Q01DX009 (ip); vehicle: saline; higher = longer survival
Toxic doses and inconclusive results are not listed.
Please go through the items and note down their T/C.

For orientation, consider the following solved cases.
C#CC(C)(C)CC; 111 % of control
COC(=N)c1cccc(O)c1; 99 % of control
CCN(CC)CCCC(C)Nc1cccc2c1C(=O)c1ccccc1C2=O (centres undefined); 93 % of control

Now examine the next entry.
Which value of T/C has been reported for "Nc1n[nH]c(N)n1.[Pt]" in the records? 102 % of control

====

Assign T/C to each entry below.
- System: L1210 leukemia ip in BDF1 mice, survival T/C
- protocolDescription: NCI In Vivo Anticancer Drug Screen. Data for tumor model L1210 Leukemia (intraperitoneal) in B6D2F1 (BDF1) mice
- conditionParameters: endpoint: mean survival time; dose: 25.0 mg/kg/injection; schedule: Q04DX003 (ip); vehicle: Klucel (hydroxypropylcellulose) (HPC); higher = longer survival
Inconclusive results and toxic doses are left out.

CN(C)/N=[N+](\[O-])c1ccccc1; 96 % of control
CC(C)NC(=O)CN=NNc1nc[nH]c1C(N)=O; 99 % of control
Cc1ccccc1N=C(N)N=C(N)N; 95 % of control
Nc1ccc(-c2ccc(NC(=O)C(=O)O)cc2)cc1; 97 % of control
CCOC(=O)Nc1cc(Nc2ccc(Cl)cc2)c2ncc(C)nc2n1; 102 % of control

Enter reported T/C observed with L1210 leukemia ip in BDF1 mice, survival T/C for CC1OC1C(=O)Sc1ccccc1 (stereo unspecified) 100 % of control

====

- Tested on: L1210 leukemia ip in BDF1 mice, survival T/C
- protocolDescription: NCI In Vivo Anticancer Drug Screen. Data for tumor model L1210 Leukemia (intraperitoneal) in B6D2F1 (BDF1) mice
- conditionParameters: endpoint: mean survival time; dose: 50.0 mg/kg/injection; schedule: Q01DX009 (ip); vehicle: saline with Tween-80; higher = longer survival
Toxic doses and inconclusive results are not listed.
reportedMetric: T/C

Study these solved cases before continuing.
C=CN1C(=O)N(C=C)C(C)(CC(C)C)C1=O (centres undefined); 104 % of control
Cc1cc([N+](=O)[O-])cc(S(=O)(=O)O)c1C; 102 % of control
CC1CC(C)(C)N=C(C2(c3ccccc3)CC2)O1 (centres undefined); 98 % of control
COc1ccc(OC(=O)CCCl)cc1; 98 % of control
CN(C)CSc1nc2ccccc2s1; 93 % of control

Required: T/C, one value per molecule below.
1. CCCSc1nccc2n[nH]nc12
2. CCOC(=O)C(=CNc1cccc2cnccc12)C(=O)OCC
3. CCCCC(CC)CCC(C)O (centres undefined)
4. O=C1c2ccccc2C(=O)N1CCOCCOCCOCCN1C(=O)c2ccccc2C1=O

95 % of control
91 % of control
96 % of control
97 % of control
